In this section, each of the compounds is paired with its reported Hemolysis rate (%).
# System: human erythrocytes
# test_method_notes: Hemolytic activity assay
# Assay type: cell-based
# conditions: 64 μM; human RBC in PB, 37°C, 1 h; OD420; total lysis control 0.1% SDS; three technical replicates
Where a SMILES comes first, the peptide text is derived from it. [ ]: non-standard residue; d: D form. hArg = N=C(N)NCCCC[C@H](N)C(=O)O; Dab = NCC[C@H](N)C(=O)O
experimental_readout: Hemolysis rate (%)

compound="CC(C)C[C@H](NC(=O)[C@H](CCCCN)NC(=O)[C@H](CCCCN)NC(=O)[C@H](Cc1ccccc1)NC(=O)[C@H](CC(C)C)NC(=O)[C@H](CCCNC(=N)N)NC(=O)[C@@H](N)CCCCN)C(=O)N[C@@H](CC(C)C)C(=O)N[C@@H](CCCCN)C(=O)N[C@@H](Cc1ccc(O)cc1)C(=O)N[C@@H](CC(C)C)C(=O)N[C@@H](CCCNC(=N)N)C(=O)N[C@H](CCCCN)C(=O)N[C@@H](Cc1ccccc1)C(N)=O [DP03] (H-KRLFKKLLKYLR[dK]F-NH2)" system_under_test="human erythrocytes" experimental_readout="Hemolysis rate (%)" value_observed=41.96
compound="CC(C)C[C@H](NC(=O)[C@H](Cc1ccc(O)cc1)NC(=O)[C@H](CCN)NC(=O)[C@H](CC(C)C)NC(=O)[C@H](CC(C)C)NC(=O)[C@H](CCN)NC(=O)[C@H](CCN)NC(=O)[C@H](Cc1ccccc1)NC(=O)[C@H](CC(C)C)NC(=O)[C@H](CCCCNC(=N)N)NC(=O)[C@@H](N)CCN)C(=O)N[C@@H](CCCCNC(=N)N)C(=O)N[C@@H](CCN)C(=O)N[C@@H](Cc1ccccc1)C(N)=O [UP13] (H-[Dab][hArg]LF[Dab][Dab]LL[Dab]YL[hArg][Dab]F-NH2)" system_under_test="human erythrocytes" experimental_readout="Hemolysis rate (%)" value_observed=41.03
compound="CC(C)C[C@H](NC(=O)[C@H](Cc1ccc(O)cc1)NC(=O)[C@H](CCCCN)NC(=O)[C@H](CC(C)C)NC(=O)[C@H](CC(C)C)NC(=O)[C@@H](CCCCN)NC(=O)[C@@H](CCCCN)NC(=O)[C@H](Cc1ccccc1)NC(=O)[C@H](CC(C)C)NC(=O)[C@@H](CCCNC(=N)N)NC(=O)[C@H](N)CCCCN)C(=O)N[C@@H](CCCNC(=N)N)C(=O)N[C@H](CCCCN)C(=O)N[C@@H](Cc1ccccc1)C(N)=O [DP05] (H-[dK][dR]LF[dK][dK]LLKYLR[dK]F-NH2)" system_under_test="human erythrocytes" experimental_readout="Hemolysis rate (%)" value_observed=30.09

---

# Tested on: proteases secreted by C. albicans ATCC 10231
# test_method_notes: in vitro
# conditions: C. albicans ATCC 10231 culture supernatant, pH 8
Where a SMILES comes first, the peptide text is derived from it. [ ]: non-standard residue; d: D form. hArg = N=C(N)NCCCC[C@H](N)C(=O)O; Dab = NCC[C@H](N)C(=O)O
experimental_readout: remaining at 24 h, 0.5 mg/mL

molecule="CC(C)C[C@H](NC(=O)[C@H](Cc1ccc(O)cc1)NC(=O)[C@H](CCN)NC(=O)[C@H](CC(C)C)NC(=O)[C@H](CC(C)C)NC(=O)[C@H](CCN)NC(=O)[C@H](CCN)NC(=O)[C@H](Cc1ccccc1)NC(=O)[C@H](CC(C)C)NC(=O)[C@H](CCCCNC(=N)N)NC(=O)[C@@H](N)CCN)C(=O)N[C@@H](CCCNC(=N)N)C(=O)N[C@@H](CCN)C(=O)N[C@@H](Cc1ccccc1)C(N)=O [UP12] (H-[Dab][hArg]LF[Dab][Dab]LL[Dab]YLR[Dab]F-NH2)" value_observed=37.7%
